assay: Inhibition of UT-B in wild type CD1 mouse erythrocyte assessed as hemolysis after 10 mins

{"columns": ["sample-smiles", "IC50"],
 "data": [
  ["Cc1ccc(S(=O)(=O)c2nnn3c2nc(N2CCCCC2)c2sccc23)cc1C", "> 25 µM"],
  ["CC(C)c1ccc(S(=O)(=O)c2nnn3c2nc(NCc2cccc4ccccc24)c2sccc23)cc1", "> 2.5 µM"],
  ["CCc1ccc(S(=O)(=O)c2nnn3c2nc(N2CCOCC2)c2sccc23)cc1", "5.6 µM"]
]}
